- Test system: Pyricularia oryzae
- Assay type: in vivo
- ASSAY_SETUP: rice plants, preventive spray, 500 ppm, grading 6 days after contamination

MOLECULE_SMILES	Eff. %
C#CCON=Cc1ccc(-c2ccccc2NC(=O)c2c(C(F)F)nn(C)c2F)cc1	80%
CON=Cc1ccc(-c2ccccc2NC(=O)c2c(C(F)F)nn(C)c2Cl)cc1	80%
CON=Cc1ccc(-c2ccccc2NC(=O)c2c(C(F)F)nn(C)c2F)cc1	80%
C#CCON=Cc1ccc(-c2ccccc2NC(=O)c2c(C(F)F)nn(C)c2Cl)cc1	90%
CCON=Cc1ccc(-c2ccccc2NC(=O)c2c(C(F)F)nn(C)c2F)cc1	90%
CCON=C(c1ccc(-c2ccccc2NC(=O)c2c(C(F)F)nn(C)c2F)cc1)C(F)(F)F	83%
CCON=Cc1ccc(-c2ccccc2NC(=O)c2c(C(F)F)nn(C)c2Cl)cc1	100%

====

- Tested on: Uromyces appendiculatus
- PROCEDURE_SUMMARY: In vivo preventive test on Uromyces appendiculatus (bean rust)
- ASSAY_SETUP: bean plants, preventive spray, 500 ppm, grading 11 days after contamination
OBSERVABLE: Eff. % (%)

MOLECULE_SMILES	TEST_TARGET	OBSERVABLE	TEST_VALUE
C#CCON=C(C)c1ccc(-c2ccccc2NC(=O)c2c(C(F)F)nn(C)c2Cl)cc1	Uromyces appendiculatus	Eff. %	100
C#CCON=C(C)c1ccc(-c2cccc(NC(=O)c3c(C(F)F)nn(C)c3Cl)c2)cc1	Uromyces appendiculatus	Eff. %	98
CC(=NOC(C)C)c1ccc(-c2ccccc2NC(=O)c2c(C(F)F)nn(C)c2Cl)cc1	Uromyces appendiculatus	Eff. %	100

====

- PROCEDURE_SUMMARY: logP by HPLC on reversed phase columns (EEC directive 79/831 Annex V.A8)
- ASSAY_SETUP: method [a]: LC-MS at pH 2.7, 0.1% formic acid in water / acetonitrile gradient 10% to 95%
The following compounds are shown together with reported logP values.
OBSERVABLE: logP

COMPOUND	TEST_VALUE
CCON=Cc1ccc(-c2cc(F)ccc2NC(=O)c2c(C(F)F)nn(C)c2Cl)cc1 [Example 19]	4.11[a]
CCON=Cc1ccc(-c2ccccc2NC(=O)c2c(C(F)F)nn(C)c2Cl)cc1F [Example 18]	4.22[a]
CC(=NOC(C)C)c1ccc(-c2ccccc2NC(=O)c2c(C(F)F)nn(C)c2Cl)cc1 [Example 1]	5.03[a]
CON=Cc1ccc(-c2ccccc2NC(=O)c2c(C(F)F)nn(C)c2Cl)cc1C(F)(F)F [Example 24]	4.25[a]
CCON=C(C)c1ccc(-c2ccccc2NC(=O)c2c(C(F)F)nn(C)c2F)cc1 [Example 16]	4.29[a]
CCON=C(C)c1ccc(-c2ccccc2NC(=O)c2c(C(F)F)nn(C)c2Cl)cc1 [Example 2]	4.58[a]
CCON=C(C)c1cccc(-c2cccc(NC(=O)c3c(C(F)F)nn(C)c3Cl)c2)c1 [Example 43]	4.49[a]
CON=Cc1ccc(-c2ccccc2NC(=O)c2c(C(F)F)nn(C)c2Cl)cc1 [Example 8]	4.18[a]
C#CCON=Cc1ccc(-c2ccccc2NC(=O)c2c(C(F)F)nn(C)c2F)cc1 [Example 4]	3.55[a]
CC#CCON=Cc1ccc(-c2ccccc2NC(=O)c2c(C(F)F)nn(C)c2Cl)cc1 [Example 22]	4.13[a]
CON=Cc1ccc(-c2c(F)cccc2NC(=O)c2c(C(F)F)nn(C)c2Cl)cc1 [Example 28]	3.76[a]
CON=Cc1ccc(-c2cc(F)ccc2NC(=O)c2c(C(F)F)nn(C)c2Cl)cc1 [Example 30]	3.66[a]
CCON=Cc1ccc(-c2ccccc2NC(=O)c2c(C(F)F)nn(C)c2Cl)cc1C [Example 39]	4.48[a]
CON=C(C)c1cccc(-c2cccc(NC(=O)c3c(C(F)F)nn(C)c3F)c2)c1 [Example 42]	3.85[a]
CON=Cc1ccc(-c2ccccc2NC(=O)c2c(C(F)F)nn(C)c2Cl)c(Cl)c1 [Example 10]	4.05[a]
CC#CCON=C(C)c1ccc(-c2ccccc2NC(=O)c2c(C(F)F)nn(C)c2F)cc1 [Example 13]	4.11[a]
CCON=Cc1ccc(-c2c(F)cccc2NC(=O)c2c(C(F)F)nn(C)c2Cl)cc1 [Example 40]	4.18[a]
CCON=Cc1ccc(-c2ccccc2NC(=O)c2c(C(F)F)nn(C)c2Cl)cc1Cl [Example 17]	4.64[a]

====

- PROCEDURE_SUMMARY: logP by HPLC on reversed phase columns (EEC directive 79/831 Annex V.A8)
- ASSAY_SETUP: method [a]: LC-MS at pH 2.7, 0.1% formic acid in water / acetonitrile gradient 10% to 95%

MOLECULE	logP
CCON=C(C)c1ccc(-c2ccccc2NC(=O)c2c(C(F)F)nn(C)c2Cl)cc1 [Example 34]	4.49[a]
C#CCON=C(C)c1ccc(-c2cccc(NC(=O)c3c(C(F)F)nn(C)c3Cl)c2)cc1	4.01[a]
C#CCON=Cc1ccc(-c2ccccc2NC(=O)c2c(C(F)F)nn(C)c2Cl)cc1	3.79[a]
CCON=Cc1ccc(-c2ccccc2NC(=O)c2c(C(F)F)nn(C)c2Cl)c(Cl)c1	4.49[a]
CCON=C(c1ccc(-c2ccccc2NC(=O)c2c(C(F)F)nn(C)c2F)cc1)C(F)(F)F	4.46[a]
CC#CCON=Cc1ccc(-c2ccccc2NC(=O)c2c(C(F)F)nn(C)c2F)cc1	3.87[a]
CCON=C(C)c1ccc(-c2ccccc2NC(=O)c2c(C(F)F)nn(C)c2F)cc1 [Example 11]	4.24[a]
CCON=Cc1ccc(-c2ccccc2NC(=O)c2c(C(F)F)nn(C)c2Cl)cc1	4.19[a]
CON=Cc1ccc(-c2ccccc2NC(=O)c2c(C(F)F)nn(C)c2Cl)cc1C	4.04[a]
C#CCON=C(C)c1ccc(-c2ccccc2NC(=O)c2c(C(F)F)nn(C)c2Cl)cc1	4.06[a]
CC#CCON=C(C)c1ccc(-c2ccccc2NC(=O)c2c(C(F)F)nn(C)c2Cl)cc1	4.41[a]
CON=Cc1ccc(-c2ccccc2NC(=O)c2c(C(F)F)nn(C)c2Cl)cc1Cl	4.19[a]
CCON=Cc1ccc(-c2ccccc2NC(=O)c2c(C(F)F)nn(C)c2F)cc1	3.87[a]
CCON=Cc1ccc(-c2ccccc2NC(=O)c2c(C(F)F)nn(C)c2Cl)c(F)c1	3.65[a]
CON=Cc1c(F)cc(-c2ccccc2NC(=O)c2c(C(F)F)nn(C)c2Cl)cc1F	3.61[a]
CCON=Cc1c(F)cc(-c2ccccc2NC(=O)c2c(C(F)F)nn(C)c2Cl)cc1F	4.04[a]
CCON=Cc1ccc(-c2ccccc2NC(=O)c2c(C(F)F)nn(C)c2Cl)cc1C(F)(F)F	4.65[a]
